Organism: Rattus norvegicus
test name: Radioactivity distribution in brain of tumor-bearing fischer rat after injection of [18F]fluoro-2-methylpropanoic acid after 60 min
Type: ADME, organism-based
measurement setup: in vivo, 1 h
endpoint: ID/g
Give me the value, and tack the unit on after it.

Entry CC(N)(C[18F])C(=O)O.Cl (stereo unspecified) ; ID/g = 0.054%

----------
Species: Rattus norvegicus
test name: Radioactivity distribution in tumor of tumor-bearing fischer rat after injection of [18F]fluoro-2-methylpropanoic acid after 120 min
Format: ADME, organism-based
measurement setup: in vivo, 2 h
endpoint: ID/g (%)
Form entry: value (%) — number only.

Entry CC(N)(C[18F])C(=O)O.Cl (stereo unspecified) ; ID/g = 1.87

----------
Species on record: Rattus norvegicus
test name: Radioactivity distribution in tumor of tumor-bearing fischer rat after injection of [18F]-fluoro-2-methyl-2-(methylamino)propanoic acid after 5 min.
measurement setup: in vivo
endpoint: ID/g (%)
Form entry: value (%) — number only.

Entry CNC(C)(C[18F])C(=O)O.Cl (stereo unspecified) ; ID/g = 1.29

The reported measurements were obtained from ChEMBL document CHEMBL1135739.
